Origin of measurements: PubChem BioAssay AID765

# MEASUREMENT_TARGET: N-formyl peptide receptor 2 (Homo sapiens) (UniProt P25090)
# Sequence (P25090 whole entry, looked up): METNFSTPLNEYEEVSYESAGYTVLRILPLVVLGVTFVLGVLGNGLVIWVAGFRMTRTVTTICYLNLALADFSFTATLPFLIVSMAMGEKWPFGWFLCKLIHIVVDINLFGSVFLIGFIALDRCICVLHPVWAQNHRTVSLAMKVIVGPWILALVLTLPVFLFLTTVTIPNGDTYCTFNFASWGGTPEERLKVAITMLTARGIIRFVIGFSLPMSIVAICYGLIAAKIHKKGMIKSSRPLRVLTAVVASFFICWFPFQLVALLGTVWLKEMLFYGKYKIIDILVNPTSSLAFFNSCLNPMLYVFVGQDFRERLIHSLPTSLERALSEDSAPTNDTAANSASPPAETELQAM
# EXPERIMENT: FPRL1 fluorescent ligand binding inhibitors, cell-based, flow cytometry, single concentration (AID 765)
# SETUP_CONDITIONS: FPRL1-expressing cells, stronger effect = higher value; at 5.1 µM unless noted
Active and inactive are the calls of the source. Rule as the data show it: active = inhibition above about 31%; inactive = the rest.
EXPERIMENTAL_ENDPOINT: inhibition

COc1ccccc1-c1cc(C(F)(F)F)nc(N2CCN(c3ccccc3OC)CC2)n1 | -2.8% [at 5 µM] (inactive)
CC1(C)CC(=O)c2cnc(N3CCN(Cc4ccc5c(c4)OCO5)CC3)nc2C1 | -3.3% [at 5.6 µM] (inactive)
CN1CCN(c2nc(-c3ccccc3)c3cc(Cl)ccc3n2)CC1 | -15% [at 6.6 µM] (inactive)
COc1ccc(CC(=O)Nc2cc(-c3cn4cccnc4n3)ccc2OC)cc1 | 64.2% [at 5.7 µM] (active)
COc1ccc(-c2cn3cccnc3n2)cc1NC(=O)c1ccc(Br)o1 | -10% [at 5.4 µM] (inactive)
O=C(N1CCN(c2nc(-c3ccccc3)c3cc([N+](=O)[O-])ccc3n2)CC1)C(F)(F)F | -4.2% [at 5.2 µM] (inactive)
CCCC(CCC)C(=O)Nc1cc(-c2cn3cccnc3n2)ccc1OC | 19.4% [at 6.1 µM] (inactive)
CCC(=O)Nc1cc(-c2cn3cccnc3n2)ccc1OC | 41.3% [at 7.5 µM] (active)
COc1cccc(-c2cc(C(F)(F)F)nc(N3CCN(C(c4ccccc4)c4ccccc4)CC3)n2)c1 | -3.9% [at 4.4 µM] (inactive)
FC(F)(F)c1cc(-c2cccs2)nc(N2CCN(C(c3ccccc3)c3ccccc3)CC2)n1 | -11% [at 4.6 µM] (inactive)
